Tested on: T. cruzi intracellular amastigotes
test method notes: Image-based assay of the number of T. cruzi infected cells (intracellular amastigotes in 3T3 host cells)
Format: cell-based, Trypanosoma cruzi
condition: Trypanosoma cruzi; 48 hours incubation; read-out: T. cruzi 48 relative Emax (in brackets) (converted)

molecule	Emax, %
CC1CS(=O)(=O)CCN1/N=C/c1ccc([N+](=O)[O-])o1 (stereo not shown) [NFX, nifurtimox]	100
C#Cc1cn([C@H]2C[C@H](O)[C@@H](CO)O2)c(=O)[nH]c1=O [EdU, 5-ethynyl-2′-deoxy-uridine]	98
C#Cc1cn([C@H]2C[C@H](O)[C@@H](CO)O2)c(=O)nc1N [EdC, 5-ethynyl-2′-deoxy-cytidine]	87
COc1ccc(C[C@H](N)C(=O)N[C@H]2[C@@H](O)[C@H](n3cnc4c(N(C)C)ncnc43)O[C@@H]2CO)cc1 [PURO, puromycin]	100
